Listed here: items and their measured activity at 3 µM.
# Tested on: P. berghei-ANKA-GFP-LucCON liver stage parasites in HepG2-A16-CD81EGFP cells
# experimentSummary: P. berghei liver stage Pb-Luc assay, Method 1 (UCSD, 1536-well); also: reference of the scale not given here
# Assay type: cell-based, Plasmodium berghei
# testSettings: Plasmodium berghei, 48 h, nominal 3 uM (10 mM stock); 4.5 uM for 15 mM, 3.6 uM for 12 mM, 6 uM for 20 mM stock; average of 2 wells, 1536-well plate; repeat 3; read-out: Pb-Luc signal, 3 uM, repeat 3

{"compound": "CCCOC(=O)c1c(NC(=O)C(C)Sc2nc(-c3ccccc3)cc(C(F)(F)F)n2)sc(C(=O)N(C)C)c1C (stereo not drawn)", "activity at 3 µM / %": 113}
{"compound": "CCCCCn1c(=N)n(CC(O)COc2cccc(C)c2)c2ccccc21 (stereo not drawn)", "activity at 3 µM / %": 96.1}
{"compound": "O[C@H]1CC[C@@H](Cc2cc(-c3ccc(F)cc3)on2)O[C@@H]1CNC1CCCCC1", "activity at 3 µM / %": 134}
{"compound": "CC(C)c1ccccc1Oc1c(C(F)(F)F)oc2c(CN3CCN(C)CC3)c(O)ccc2c1=O", "activity at 3 µM / %": 69.5}
{"compound": "COc1ccc(Nc2cnc3ccc(-c4ccc(OC)c(OC)c4)nn23)cc1", "activity at 3 µM / %": -0.14}
{"compound": "Cn1nnnc1SCCCNCc1cccc(OCc2ccccc2)c1", "activity at 3 µM / %": 87.5}
{"compound": "COc1ccc(C2Sc3ccccc3N=C3C2=C(O)c2ccccc23)c(OC)c1OC (stereo not drawn)", "activity at 3 µM / %": 74.5}
{"compound": "COc1ccc2[nH]c(C[C@@H]3C[C@@H](C(C)C)[C@H](CNCc4ccccc4OC)C=C3C)nc2c1", "activity at 3 µM / %": 40.1}
{"compound": "CCOc1ccc(Cl)cc1CN(C)CC1(O)CCCNC1 (stereo not drawn)", "activity at 3 µM / %": 128}
